ASSAY_SUMMARY: photoluminescence quantum yield (fraction); solvent given as SMILES
CONDITION_NOTES: in Cc1ccccc1
Lab note: cut-off is 0.5. Strictly less in photoluminescence quantum yield is y. Exactly 0.5 or more is n.

[
  {
    "SMILES_RECORD": "CN(C)c1ccc(/C=C2\\CC/C(=C\\c3ccc(N(C)C)cc3)C2=O)cc1",
    "LABEL_CLASS": "y"
  },
  {
    "SMILES_RECORD": "CC(C)(C)c1ccc(-c2sc3c(-c4ccc(C(C)(C)C)cc4)c4n(c3c2-c2ccc(C(C)(C)C)cc2)[B-](F)(F)[N+]2=Cc3c(-c5ccc(C(C)(C)C)cc5)c5sc(-c6ccc(C(C)(C)C)cc6)c(-c6ccc(C(C)(C)C)cc6)c5n3[B-](F)(F)[N+]2=C4)cc1",
    "LABEL_CLASS": "n"
  },
  {
    "SMILES_RECORD": "CCCCN1c2ccccc2Sc2cc(/C=C/c3nc4nc5ccccc5nc4s3)ccc21",
    "LABEL_CLASS": "y"
  },
  {
    "SMILES_RECORD": "COCCC1=Cc2nc1ccc1[nH]c(cc1CCOC)c1nc(c(N)cc3[nH]c2cc3CCOC)C(CCOC)=C1",
    "LABEL_CLASS": "y"
  },
  {
    "SMILES_RECORD": "COC(=O)c1cc(=O)n(C)c2cc(-c3ccc(OC)cc3)sc12",
    "LABEL_CLASS": "n"
  },
  {
    "SMILES_RECORD": "CCN(CC)c1ccc2c(C#N)c(/C=C(\\C#N)c3nc4ccccc4o3)c(=O)oc2c1",
    "LABEL_CLASS": "y"
  },
  {
    "SMILES_RECORD": "Cc1cc(-c2nnc(-c3c(C(C)C)cc(C(C)C)cc3C(C)C)o2)ccc1-n1c2ccccc2c2ccccc21",
    "LABEL_CLASS": "y"
  }
]

---

ASSAY_SUMMARY: photoluminescence quantum yield (fraction); solvent given as SMILES
CONDITION_NOTES: in OCC(F)(F)F

[
  {
    "SMILES_RECORD": "CCC1=C(C)C2=C(C)c3cccn3[B-](F)(F)[N+]2=C1C",
    "photoluminescence quantum yield": 0.75
  },
  {
    "SMILES_RECORD": "CCC1=C(C)C2=Cc3cc(I)cn3[B-](F)(F)[N+]2=C1C",
    "photoluminescence quantum yield": 0.05
  },
  {
    "SMILES_RECORD": "Cc1oc2c(Cl)cc3c(C)cc(=O)oc3c2c1C",
    "photoluminescence quantum yield": 0.04
  },
  {
    "SMILES_RECORD": "C#CCNC1=C2C=CC=[N+]2[B-](F)(F)n2cccc21",
    "photoluminescence quantum yield": 0.88
  },
  {
    "SMILES_RECORD": "CCC1=C(C)C2=C(C)c3cc(I)cn3[B-](F)(F)[N+]2=C1C",
    "photoluminescence quantum yield": 0.075
  },
  {
    "SMILES_RECORD": "O=C1/C(=C/C=C/c2cc3c4c(c2)CCCN4CCC3)CC/C1=C\\C=C\\c1cc2c3c(c1)CCCN3CCC2",
    "photoluminescence quantum yield": 0.008
  },
  {
    "SMILES_RECORD": "CCC1=C(C)C2=Cc3cc(I)c(I)n3[B-](F)(F)[N+]2=C1C",
    "photoluminescence quantum yield": 0.12
  },
  {
    "SMILES_RECORD": "CCC1=C(C)C2=C(C)c3c(I)c(I)cn3[B-](F)(F)[N+]2=C1C",
    "photoluminescence quantum yield": 0.019
  },
  {
    "SMILES_RECORD": "Nc1ccccc1C(=O)O",
    "photoluminescence quantum yield": 0.27
  }
]
